# Tested on: SR leukemia
# assaySummary: NCI-60 one-dose screen, 48 h
# conditionSet: 10 µM unless noted
This is part of a sample that, as a whole, favours compounds with a hit. Of some 83,000 tested, about 20% had one in any assay. Activity calls are given as the source filed them. Rule for the calls: active = growth percent below 10; inactive = the rest.
// one of y (active), n (inactive), no free text

# fetch the recorded call for Nc1nc(N)c(N=Nc2ccccc2)c(-c2ccccc2)n1 here
n

Status in this test for CCOC(=O)c1c(C)nc2ccccc2c1/C=C/c1cccs1 ?
n

I'd appreciate the recorded outcome for CC(=C(c1ccc(OCCN2CCCCC2)cc1)c1ccc(OCCN2CCCCC2)cc1)c1ccc(Cl)cc1 from this test.
y

# lookup: test call for C/C(=N\O)c1ccc(NC(=O)CSc2nnc(-c3cc(-c4ccc(S(N)(=O)=O)cc4)nc4ccccc34)n2-c2ccccc2)cc1
n

Test call for this compound, please: CCNc1nc(O)c(/C=C2\C=Nc3ncccc32)s1
y

Hi, do you know how Cn1cc(-c2ccc(-c3cn(C)c4ccc(Cl)cc34)[nH]2)c2cc(Cl)ccc21 came out in this test?
y

***
Could you please tell me the result logged for N=c1c(S(=O)(=O)c2ccccc2)cc2c(=O)n3ccccc3nc2n1CC1CCCO1 (stereo not drawn) in this assay?
n

Per the records of this test, what outcome belongs to Cc1ccc(CNc2ccc3nc(CCC(C)C)[nH]c3c2)cc1 ?
n

Field: outcome | Entry: Oc1c(CN2CCOCC2)cc(COCc2ccccc2)c2cccnc12
n

Outcome? CCc1n(Cc2ccc3ccccc3n2)cc[n+]1Cc1ccc2ccccc2n1
n

Record lookup: outcome of this test for O=C1/C(=C/c2ccccc2F)CN(C(=O)C(Cl)Cl)C/C1=C\c1ccccc1F ?
y

For CNC(=O)c1ccccc1Nc1nc(Nc2cc(OC)c(OC)c(OC)c2)ncc1Br , which call appears in the assay record?
y

Per the assay record, what outcome was assigned to Cc1ccc(/C=C/C(=O)Nc2ncc(Cc3ccc(F)cc3)s2)o1 ?
n

Entry Nc1ncnc2c1N=C(c1ccc3c(c1)OCO3)CC(c1cccc(Nc3ccnc4cc(C(F)(F)F)ccc34)c1)N2 (stereo not drawn) : call = ?
n

Lab log entry: N#Cc1nc(-c2ccccc2)oc1S(=O)(=O)N1CCN(c2ccc(F)cc2)CC1 — outcome as called in the assay?
y

Record request — test call for Cc1ccc2c(=O)cc(C(=O)Nc3sc4c(c3C(=O)NCc3cccnc3)CCCC4)oc2c1C
n

Data provenance is PubChem BioAssay (NCI).
